Target: T1, human LAP-TGFB1 Fc fusion (human)
T1 construct: also called human LAP-TGFβ1-Fc; human LAP-TGFβ-Fc isoform 1
T1 sequence (chain, as listed by the source limits assumed): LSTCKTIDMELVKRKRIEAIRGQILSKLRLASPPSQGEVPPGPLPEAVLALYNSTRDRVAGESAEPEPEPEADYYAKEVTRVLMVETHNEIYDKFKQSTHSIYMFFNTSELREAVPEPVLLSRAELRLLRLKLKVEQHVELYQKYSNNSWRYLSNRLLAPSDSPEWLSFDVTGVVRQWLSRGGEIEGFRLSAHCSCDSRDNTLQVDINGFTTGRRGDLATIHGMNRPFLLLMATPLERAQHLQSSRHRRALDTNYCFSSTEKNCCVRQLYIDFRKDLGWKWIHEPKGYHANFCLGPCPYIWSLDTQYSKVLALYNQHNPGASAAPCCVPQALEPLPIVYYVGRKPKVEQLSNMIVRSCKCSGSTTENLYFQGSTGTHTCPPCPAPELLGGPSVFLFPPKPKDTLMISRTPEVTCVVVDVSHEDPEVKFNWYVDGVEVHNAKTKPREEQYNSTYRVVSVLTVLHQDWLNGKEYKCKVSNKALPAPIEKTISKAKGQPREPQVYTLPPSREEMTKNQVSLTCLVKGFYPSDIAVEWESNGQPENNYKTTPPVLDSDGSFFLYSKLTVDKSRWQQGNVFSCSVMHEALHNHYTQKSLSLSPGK
Assay: BLI off-rate screen
property: Binding response (nm)
A number alone suffices; assume nm.

# binder, unit_tag, obs_value
data = [
    ("VL T30Y (44BIT) (Fab, V domains shown) VH: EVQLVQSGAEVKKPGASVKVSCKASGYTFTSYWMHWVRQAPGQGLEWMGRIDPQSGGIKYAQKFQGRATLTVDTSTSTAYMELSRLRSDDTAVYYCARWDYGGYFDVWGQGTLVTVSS VL: DIQMTQSPSSLSASVGDRVTITCRASQDIYNYLNWYQQKPGKAVKLLIYYTSRLHSGVPSRFSGSGSGTDYTLTISSLQPEDFATYFCQQGDTLPWTFGQGTKLEIKR", "nm", 0.472),
    ("VL L54Y (51BIT) (Fab, V domains shown) VH: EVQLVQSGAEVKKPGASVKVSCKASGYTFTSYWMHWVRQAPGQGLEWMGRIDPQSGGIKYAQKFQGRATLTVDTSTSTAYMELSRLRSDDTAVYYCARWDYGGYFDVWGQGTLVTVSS VL: DIQMTQSPSSLSASVGDRVTITCRASQDITNYLNWYQQKPGKAVKLLIYYTSRYHSGVPSRFSGSGSGTDYTLTISSLQPEDFATYFCQQGDTLPWTFGQGTKLEIKR", "nm", 0.299),
    ("VH T28Y (67BIT) (Fab, V domains shown) VH: EVQLVQSGAEVKKPGASVKVSCKASGYYFTSYWMHWVRQAPGQGLEWMGRIDPQSGGIKYAQKFQGRATLTVDTSTSTAYMELSRLRSDDTAVYYCARWDYGGYFDVWGQGTLVTVSS VL: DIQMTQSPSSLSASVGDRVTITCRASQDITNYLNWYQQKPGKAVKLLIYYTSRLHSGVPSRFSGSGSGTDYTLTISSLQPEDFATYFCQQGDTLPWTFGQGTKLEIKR", "nm", 0.326),
    ("VL P95Y (60BIT) (Fab, V domains shown) VH: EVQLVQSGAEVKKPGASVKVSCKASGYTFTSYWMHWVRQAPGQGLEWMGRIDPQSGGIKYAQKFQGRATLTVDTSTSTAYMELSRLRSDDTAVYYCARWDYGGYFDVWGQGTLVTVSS VL: DIQMTQSPSSLSASVGDRVTITCRASQDITNYLNWYQQKPGKAVKLLIYYTSRLHSGVPSRFSGSGSGTDYTLTISSLQPEDFATYFCQQGDTLYWTFGQGTKLEIKR", "nm", 0.015),
]

Exercise: // returns reported Binding response for input VH I51Y (76BIT) (Fab, V domains shown) VH: EVQLVQSGAEVKKPGASVKVSCKASGYTFTSYWMHWVRQAPGQGLEWMGRYDPQSGGIKYAQKFQGRATLTVDTSTSTAYMELSRLRSDDTAVYYCARWDYGGYFDVWGQGTLVTVSS VL: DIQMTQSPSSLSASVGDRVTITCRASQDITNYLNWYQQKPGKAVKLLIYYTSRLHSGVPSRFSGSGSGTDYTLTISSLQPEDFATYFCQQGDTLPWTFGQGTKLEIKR
Key: 0.6
